In this section we review reported protein stability index values for a set of variants.
B1: CCND2 (parent)
chain: YFKCVQKDIQPYMRRMVATWMLEV

- Variants of: B1
- PROTOCOL TEXT: protein stability index of a GFP-peptide fusion (GPS, HEK-293T) (PSI 1-6); higher = more stable;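 also: lentivirally expressed fusions sorted by FACS into six bins by GFP to DsRed ratio, PSI derived from sequencing read proportions per bin multiplied by bin number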
- CONDITION PARAMETERS: c terminus: a fixed tail appended

{"columns": ["VARIANT NOTATION", "protein stability index"],
 "data": [
  ["M13H", 2.92],
  ["P11I", 2.9],
  ["W20T", 2.18],
  ["T19G", 2.5],
  ["P11Q", 3.25],
  ["V24D", 1.56],
  ["K7P", 2.48],
  ["Y1V", 3.34],
  ["A18E", 3.2],
  ["F2Q", 3.63],
  ["F2K", 2.95],
  ["M16Q", 2.91],
  ["R15K", 2.36],
  ["V5C", 2.36],
  ["Y1E", 1.88],
  ["L22F", 4.78],
  ["E23L", 3.11],
  ["P11T", 2.34],
  ["V5P", 3.14],
  ["D8N", 2.16],
  ["E23F", 2.5],
  ["W20R", 2.17]
]}

Source listed as the supplement of paper PMC10567573.
